Data origin, for the record: patent US4731451A

Tested on: Barnyardgrass
Assay notes: Pre-emergent herbicidal activity (Table III); note: ranges in brackets are in %
Format: in vivo
Experimental context: 1.12 kg/ha
// reported Herbicidal rating per item

Answered examples (5):
Compound: CC1=C(N(Cn2c(=O)sc3ccccc32)C(=O)CCl)C(C)CCC1 (stereo not drawn) [Example 1]
Herbicidal rating: 3 (75-100)
--
Compound: CC1=C(N(Cn2c(=O)sc3ccccc32)C(=O)CCl)C(C)CCC1 (stereo not drawn) [Example 9]
Herbicidal rating: 3 (75-100)
--
Compound: COc1cccc(C)c1N(Cn1c(=O)sc2ccccc21)C(=O)CCl
Herbicidal rating: 3 (75-100)
--
Compound: CC1=C(N(Cn2c(=O)sc3ccc(Cl)cc32)C(=O)CCl)C(C)CCC1 (stereo not drawn)
Herbicidal rating: 0 (0-24)
--
Compound: CC1=C(N(Cn2c(=O)sc3ccccc32)C(=O)CCl)CCCC1
Herbicidal rating: 2 (50-74)

Now, please, on to the next compound.
Give Herbicidal rating for the following compound: CCc1cccc(CC)c1N(Cn1c(=O)sc2ccccc21)C(=O)CCl
3 (75-100)

---

// reported Herbicidal rating per item
Tested on: Wheat
Assay notes: Pre-emergent herbicidal activity (Table III); note: ranges in brackets are in %
Type: in vivo
Experimental context: 5.6 kg/ha

Molecule: CC1=C(N(Cn2c(=O)sc3ccccc32)C(=O)CCl)C(C)CCC1 (stereo not drawn) [Example 1]
Target or test system: Wheat
Herbicidal rating: 0 (0-24)
//
Molecule: CC1=C(N(Cn2c(=O)sc3ccccc32)C(=O)CCl)CCCC1 [Example 10]
Target or test system: Wheat
Herbicidal rating: 1 (25-49)
//
Molecule: CC1=C(N(Cn2c(=O)sc3ccc(Cl)cc32)C(=O)CCl)C(C)CCC1 (stereo not drawn) [Example 6]
Target or test system: Wheat
Herbicidal rating: 0 (0-24)
//
Molecule: CCc1cccc(CC)c1N(Cn1c(=O)sc2ccccc21)C(=O)CCl [Example 3]
Target or test system: Wheat
Herbicidal rating: 0 (0-24)
//
Molecule: CC1=C(N(Cn2c(=O)sc3ccccc32)C(=O)CCl)C(C)CCC1 (stereo not drawn) [Example 9]
Target or test system: Wheat
Herbicidal rating: 2 (50-74)

Now, please, on to the next molecule.
Give Herbicidal rating for the following molecule: COc1cccc(C)c1N(Cn1c(=O)sc2ccccc21)C(=O)CCl [Example 2]
2 (50-74)

---

// reported Herbicidal rating per item
Test system: Soybean
Assay notes: Pre-emergent herbicidal activity (Table III); note: ranges in brackets are in %
Format: in vivo
Experimental context: 5.6 kg/ha

Answered examples (5):
Molecule: CC1=C(N(Cn2c(=O)sc3ccccc32)C(=O)CCl)C(C)CCC1 (stereo not drawn) [Example 1]
Measurement name: Herbicidal rating
Test result: 1 (25-49)
--
Molecule: COc1cccc(C)c1N(Cn1c(=O)sc2ccccc21)C(=O)CCl
Measurement name: Herbicidal rating
Test result: 0 (0-24)
--
Molecule: CC1=C(N(Cn2c(=O)sc3ccccc32)C(=O)CCl)C(C)CCC1 (stereo not drawn) [Example 9]
Measurement name: Herbicidal rating
Test result: 0 (0-24)
--
Molecule: CC1=C(N(Cn2c(=O)sc3ccc(Cl)cc32)C(=O)CCl)C(C)CCC1 (stereo not drawn)
Measurement name: Herbicidal rating
Test result: 0 (0-24)
--
Molecule: CCc1cccc(CC)c1N(Cn1c(=O)sc2ccccc21)C(=O)CCl
Measurement name: Herbicidal rating
Test result: 0 (0-24)

Give Herbicidal rating for the following molecule: CC1=C(N(Cn2c(=O)sc3ccccc32)C(=O)CCl)CCCC1
0 (0-24)

---

Tested on: Panicum
Assay notes: Pre-emergent herbicidal activity (Table III); note: ranges in brackets are in %
Assay type: in vivo
Experimental context: 5.6 kg/ha
// reported Herbicidal rating per item

Answered examples (5):
Molecule: CC1=C(N(Cn2c(=O)sc3ccccc32)C(=O)CCl)C(C)CCC1 (stereo not drawn) [Example 9]
Herbicidal rating: 3 (75-100)
--
Molecule: COc1cccc(C)c1N(Cn1c(=O)sc2ccccc21)C(=O)CCl
Herbicidal rating: 3 (75-100)
--
Molecule: CC1=C(N(Cn2c(=O)sc3ccccc32)C(=O)CCl)C(C)CCC1 (stereo not drawn) [Example 1]
Herbicidal rating: 2 (50-74)
--
Molecule: CC1=C(N(Cn2c(=O)sc3ccc(Cl)cc32)C(=O)CCl)C(C)CCC1 (stereo not drawn)
Herbicidal rating: 0 (0-24)
--
Molecule: CC1=C(N(Cn2c(=O)sc3ccccc32)C(=O)CCl)CCCC1
Herbicidal rating: 2 (50-74)

Write down the reported Herbicidal rating (system: Panicum) of CCc1cccc(CC)c1N(Cn1c(=O)sc2ccccc21)C(=O)CCl
3 (75-100)

---

// reported Herbicidal rating per item
Test system: Smartweed
Assay notes: Pre-emergent herbicidal activity (Table III); note: ranges in brackets are in %
Format: in vivo
Experimental context: 0.28 kg/ha
Procedure: The pre-emergence tests are conducted as follows: A good grade of top soil is placed in aluminum pans and compacted to a depth of three-eighths to one-half inch from the top of the pan. On the top of the soil is placed a predetermined number of seeds or vegetative propagules of various plant species. […] Approximately 2-3 weeks after seeding and treating, the plants are observed and the results recorded. […]

Answered examples (3):
Molecule: CCc1cccc(CC)c1N(Cn1c(=O)sc2ccccc21)C(=O)CCl [Example 3]
Herbicidal rating: 0 (0-24)
//
Molecule: CC1=C(N(Cn2c(=O)sc3ccccc32)C(=O)CCl)CCCC1 [Example 10]
Herbicidal rating: 0 (0-24)
//
Molecule: CC1=C(N(Cn2c(=O)sc3ccccc32)C(=O)CCl)C(C)CCC1 (stereo not shown) [Example 1]
Herbicidal rating: 1 (25-49)

Now, please, on to the next molecule.
Give Herbicidal rating for the following molecule: COc1cccc(C)c1N(Cn1c(=O)sc2ccccc21)C(=O)CCl [Example 2]
1 (25-49)

---

Test system: Barnyardgrass
Assay notes: Pre-emergent herbicidal activity (Table II); note: ranges in brackets are in %
Assay type: in vivo
Experimental context: 5.6 kg/ha, 2-3 weeks
// reported Herbicidal rating per item

Compound: CC1=C(N(Cn2c(=O)sc3ccccc32)C(=O)CCl)C(C)CCC1 (stereo not shown) [Example 9]
Measurement name: Herbicidal rating
Test result: 3 (75-100)
//
Compound: CC1=C(N(Cn2c(=O)sc3ccc(Cl)cc32)C(=O)CCl)C(C)CCC1 (stereo not shown)
Measurement name: Herbicidal rating
Test result: 1 (25-49)
//
Compound: CC1=C(N(Cn2c(=O)sc3cc(Br)ccc32)C(=O)CCl)C(C)CCC1 (stereo not shown)
Measurement name: Herbicidal rating
Test result: 1 (25-49)
//
Compound: CC1=C(N(Cn2c(=O)sc3ccccc32)C(=O)CCl)C(C)CCC1 (stereo not shown) [Example 1]
Measurement name: Herbicidal rating
Test result: 3 (75-100)
//
Compound: CC1=C(N(Cn2c(=O)oc3ccccc32)C(=O)CCl)C(C)CCC1 (stereo not shown)
Measurement name: Herbicidal rating
Test result: 3 (75-100)

Write down the reported Herbicidal rating (system: Barnyardgrass) of CCOc1ccc2c(c1)sc(=O)n2CN(C(=O)CCl)C1=C(C)C(C)CCC1 (stereo not shown)
1 (25-49)

Write down the reported Herbicidal rating (system: Barnyardgrass) of COc1cccc(C)c1N(Cn1c(=O)sc2ccccc21)C(=O)CCl
3 (75-100)

Write down the reported Herbicidal rating (system: Barnyardgrass) of CC1=C(N(Cn2c(=O)sc3ccccc32)C(=O)CCl)CCCC1
3 (75-100)

Write down the reported Herbicidal rating (system: Barnyardgrass) of CCc1cccc(CC)c1N(Cn1c(=O)sc2ccccc21)C(=O)CCl
3 (75-100)

Write down the reported Herbicidal rating (system: Barnyardgrass) of CCC1=C(N(Cn2c(=O)sc3ccccc32)C(=O)CCl)C(CC)CCC1 (stereo not shown)
1 (25-49)

---

// reported Herbicidal rating per item
Test system: Morningglory
Assay notes: Pre-emergent herbicidal activity (Table II); note: ranges in brackets are in %
Type: in vivo
Experimental context: 5.6 kg/ha, 2-3 weeks

Answered examples (3):
Molecule: CCc1cccc(CC)c1N(Cn1c(=O)sc2ccccc21)C(=O)CCl [Example 3]
Herbicidal rating: 0 (0-24)
--
Molecule: COc1cccc(C)c1N(Cn1c(=O)sc2ccccc21)C(=O)CCl [Example 2]
Herbicidal rating: 0 (0-24)
--
Molecule: CC1=C(N(Cn2c(=O)oc3ccccc32)C(=O)CCl)C(C)CCC1 (stereo not shown) [Example 11]
Herbicidal rating: 0 (0-24)

Give Herbicidal rating for the following molecule: CC1=C(N(Cn2c(=O)sc3cc(Br)ccc32)C(=O)CCl)C(C)CCC1 (stereo not shown) [Example 7]
0 (0-24)

Give Herbicidal rating for the following molecule: CCC1=C(N(Cn2c(=O)sc3ccccc32)C(=O)CCl)C(CC)CCC1 (stereo not shown) [Example 5]
0 (0-24)

---

Test system: Velvetleaf
Assay notes: Pre-emergent herbicidal activity (Table II); note: ranges in brackets are in %
Assay type: in vivo
Experimental context: 11.2 kg/ha, 2-3 weeks
Experimental: The pre-emergence tests are conducted as follows: A good grade of top soil is placed in aluminum pans and compacted to a depth of three-eighths to one-half inch from the top of the pan. On the top of the soil is placed a predetermined number of seeds or vegetative propagules of various plant species. […] Approximately 2-3 weeks after seeding and treating, the plants are observed and the results recorded. […]
// reported Herbicidal rating per item

Compound: CCc1cccc(CC)c1N(Cn1c(=O)sc2ccccc21)C(=O)CCl
Test result: 0 (0-24)

Give Herbicidal rating for the following compound: CC1=C(N(Cn2c(=O)sc3ccccc32)C(=O)CCl)CCCC1
0 (0-24)

Give Herbicidal rating for the following compound: CCC1=C(N(Cn2c(=O)sc3ccccc32)C(=O)CCl)C(CC)CCC1 (centres unmarked)
0 (0-24)

Give Herbicidal rating for the following compound: CC1=C(N(Cn2c(=O)sc3ccc(Cl)cc32)C(=O)CCl)C(C)CCC1 (centres unmarked)
0 (0-24)

Give Herbicidal rating for the following compound: COc1cccc(C)c1N(Cn1c(=O)sc2ccccc21)C(=O)CCl
0 (0-24)
